# assayed target: BRAF D594G (Homo sapiens, UniProt P15056, D594G)
# Construct: Horizon Discovery (HCT-116 BRAF−/− cells); host or cells: HCT-116 BRAF−/− cells, clone 63, lentiviral transduction
# Sequence (P15056 whole entry D594G): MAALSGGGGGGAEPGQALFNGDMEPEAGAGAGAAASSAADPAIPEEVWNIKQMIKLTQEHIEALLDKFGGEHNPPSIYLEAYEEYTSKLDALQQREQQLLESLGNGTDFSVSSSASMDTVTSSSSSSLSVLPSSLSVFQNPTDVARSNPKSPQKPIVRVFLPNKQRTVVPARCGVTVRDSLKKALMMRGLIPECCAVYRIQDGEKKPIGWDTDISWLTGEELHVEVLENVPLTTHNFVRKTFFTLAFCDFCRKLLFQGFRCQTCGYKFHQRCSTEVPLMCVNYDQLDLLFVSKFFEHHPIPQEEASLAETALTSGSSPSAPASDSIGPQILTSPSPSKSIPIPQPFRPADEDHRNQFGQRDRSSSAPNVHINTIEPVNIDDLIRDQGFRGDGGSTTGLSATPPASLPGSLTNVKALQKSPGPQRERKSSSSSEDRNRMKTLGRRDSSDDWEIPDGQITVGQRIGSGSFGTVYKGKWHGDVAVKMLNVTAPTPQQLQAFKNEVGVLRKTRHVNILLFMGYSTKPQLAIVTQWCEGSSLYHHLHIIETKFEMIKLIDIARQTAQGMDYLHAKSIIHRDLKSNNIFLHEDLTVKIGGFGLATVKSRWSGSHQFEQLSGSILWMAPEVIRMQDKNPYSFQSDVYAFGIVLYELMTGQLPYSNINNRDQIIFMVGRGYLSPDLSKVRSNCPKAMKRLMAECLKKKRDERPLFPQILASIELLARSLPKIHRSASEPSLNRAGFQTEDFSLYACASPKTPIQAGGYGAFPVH
# procedure summary: BRAF HiBiT degradation assay, C-terminal HiBiT-tagged BRAF D594G overexpressed in HCT-116 BRAF−/− cells (clone 63), Nano-Glo HiBiT Lytic assay
# Type: cell-based
# run parameters: BRAF D594G (Class 3), HCT-116 BRAF−/− cells; observed Dmax relative to DMSO control
assay endpoint: Dmax

compound	Dmax
O=C1CCN(c2ccc(N3CCC(CN4CCN(c5ccc(-n6cc(-c7cc(Cl)cc(NS(=O)(=O)N8CC[C@@H](F)C8)c7F)c(-c7ccncc7)n6)cc5)CC4)CC3)cc2)C(=O)N1 [Compound 292]	30 to 70%
O=C1CC[C@H](c2ccc(N3CCC(CN4CCN(c5ccc(-n6cc(-c7cc(Cl)cc(NS(=O)(=O)N8CC[C@@H](F)C8)c7F)c(-c7ccncc7)n6)cc5)CC4)CC3)nc2)C(=O)N1 [Compound 264]	> 70%
CCN(C)S(=O)(=O)Nc1cc(Cl)cc(-c2cn(-c3ccc(N4CCN(CC5CCN(c6ccc(C7CCC(=O)NC7=O)cn6)CC5)CC4)cc3)nc2-c2ccncc2)c1F (racemic) [Compound 308]	> 70%
C[C@@H]1CN(c2ccc(-n3cc(-c4cc(Cl)cc(NS(=O)(=O)N5CCCC5)c4F)c(-c4ccncc4)n3)nc2)CCN1CC1CCN(c2ccc(C3CCC(=O)NC3=O)cn2)CC1 (mixture of isomers) [Compound 323]	> 70%
C[C@@H]1CN(c2ccc(-n3cc(-c4cc(F)cc(NS(=O)(=O)N5CCCC5)c4F)c(-c4ccncc4)n3)c(F)c2)CCN1CC1CCN(c2ccc(C3CCC(=O)NC3=O)cn2)CC1 (mixture of isomers) [Compound 289]	> 70%

stdin: // query Dmax value for entry O=C1CCN(c2ccc(N3CCC(CN4CCN(c5ccc(-n6cc(-c7cc(Cl)cc(NS(=O)(=O)N8CC[C@@H](F)C8)c7F)c(-c7ccncc7)n6)nc5)CC4)CC3)cc2)C(=O)N1 [Compound 295]
stdout: 30 to 70%

stdin: // query Dmax value for entry O=C1CCC(c2ccc(N3CCC(CN4CCN(c5cc(F)c(-n6cc(-c7cc(Cl)cc(NS(=O)(=O)N8CCCC8)c7F)c(-c7ccncc7)n6)cc5F)CC4)CC3)nc2)C(=O)N1 (racemic) [Compound 354]
stdout: 30 to 70%

====

# assayed target: BRAF D594G (Homo sapiens, UniProt P15056, D594G)
# Construct: Horizon Discovery (HCT-116 BRAF−/− cells); host or cells: HCT-116 BRAF−/− cells, clone 63, lentiviral transduction
# procedure summary: BRAF HiBiT degradation assay, C-terminal HiBiT-tagged BRAF D594G overexpressed in HCT-116 BRAF−/− cells (clone 63), Nano-Glo HiBiT Lytic assay
# Type: cell-based
# run parameters: BRAF D594G; DC50 at 50%: fitted conc. at Y=50
assay endpoint: DC50

compound	assay value
CCCS(=O)(=O)Nc1cccc(-c2nc(C3CCN(C(=O)C4CCN(C(=O)C5CCN(c6ccc(C7CCC(=O)NC7=O)cn6)CC5)CC4)CC3)sc2-c2ccnc(NC)n2)c1F (racemic) [Compound 212]	< 10 nM
CCCS(=O)(=O)Nc1cccc(-c2nc(C3CCN(C(=O)C4CCN(C(=O)C5CCN(c6ccc(C7CCC(=O)NC7=O)cn6)CC5)CC4)CC3)sc2-c2ccncn2)c1F (racemic) [Compound 220]	< 10 nM

Next, consider the following compound.
stdin: // query DC50 value for entry CCN(C)S(=O)(=O)Nc1cccc(-c2nc(C3CCN(C(=O)C4CCN(C(=O)C5CCN(c6ccc(C7CCC(=O)NC7=O)cn6)CC5)CC4)CC3)sc2-c2ccnc(NC(C)C)n2)c1F (racemic) [Compound 183]
stdout: < 10 nM
